Recorded ADCC potency EC50, one value per entry.
- systemUnderTest: human ILT7 expressed on transfected cells (human, UniProt P59901 24-499)
- Sequence (P59901 24-499): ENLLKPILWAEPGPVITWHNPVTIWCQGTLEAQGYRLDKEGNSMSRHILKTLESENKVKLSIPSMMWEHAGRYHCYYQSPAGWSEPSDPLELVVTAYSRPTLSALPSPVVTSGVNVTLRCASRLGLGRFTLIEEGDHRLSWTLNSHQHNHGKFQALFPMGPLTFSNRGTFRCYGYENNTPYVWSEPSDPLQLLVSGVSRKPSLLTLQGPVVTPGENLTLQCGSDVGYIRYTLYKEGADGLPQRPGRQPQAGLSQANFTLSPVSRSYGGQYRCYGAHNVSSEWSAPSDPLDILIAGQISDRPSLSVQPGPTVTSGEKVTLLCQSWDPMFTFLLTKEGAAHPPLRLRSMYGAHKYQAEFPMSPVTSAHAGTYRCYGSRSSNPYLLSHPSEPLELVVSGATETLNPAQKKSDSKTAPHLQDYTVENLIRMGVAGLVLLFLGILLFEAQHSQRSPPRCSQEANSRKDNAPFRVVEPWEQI
- assayName: cell-based or functional assay

{"binder": "ILT70083.3 (antibody, V domains shown, Engineered (germlined) ILT70083 IgG1 variant; also called ILT70083 variant) VH: EVQLLESGGGLVQPGGSLRLSCAASGFTFSSYAMSWVRQAPGKGLEWVSAISGSGGSTYYADSVKGWFTISRDNSKNTLYLQMNSLRAEDTAVYYCARRTYYYDSDGHSDVFDIWGRGTLVTVSS VL: QSVVTQPPSVSAAPGQKVTISCSGSASNIGSNFVSWYQQLPGTAPKLLIYDNDKRDLGIPDRFSGSKSGTSATLGITGLQTGDEADYYCGTWDTSLTVGVFGGGTKLTVL", "reported": "> 89 µM"}

QUERY: So what does the record say about ADCC potency EC50 for ILT70083.4 (antibody, V domains shown, Engineered (germlined) ILT70083 IgG1 variant; also called ILT70083 variant) VH: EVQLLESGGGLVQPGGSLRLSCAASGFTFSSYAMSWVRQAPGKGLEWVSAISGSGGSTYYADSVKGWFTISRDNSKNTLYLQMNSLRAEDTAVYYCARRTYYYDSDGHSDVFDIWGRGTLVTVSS VL: QSVLTQPPSVSAAPGQKVTISCSGSASNIGSNFVSWYQQLPGTAPKLLIYDNDKRDLGIPDRFSGSKSGTSATLGITGLQTGDEADYYCGTWDTSLTVGVFGGGTKLTVL ?
RESULT: > 89 µM

QUERY: ILT70080.2 (antibody, V domains shown, Engineered (germlined) ILT70080 variant tested as IgG1; also called ILT70080 variant) VH: QVQLVQSGAEVKKPGSSVKVSCKASGDSFRNYAVSWVRQAPGQGLEWMGAMMPSFGTREHSQQFQGRVTLSADESTSTAYMELSSLRSEDTAVYYCAGSRDYNAYHFWTGPPDFWGRGTLVTVSS VL: SYVLTQPPSVSVAPGKTARITCGGDSVGSTSVHWYQQKPGQAPVMVMFYNSDRPSGIPERFSGSISGNTATLTISRVEAGDEADYYCQVWDTSSDHPEFGGGTKLTVL ?
RESULT: < 14.1 µM

QUERY: Okay, and ILT70083.1 (antibody, V domains shown) VH: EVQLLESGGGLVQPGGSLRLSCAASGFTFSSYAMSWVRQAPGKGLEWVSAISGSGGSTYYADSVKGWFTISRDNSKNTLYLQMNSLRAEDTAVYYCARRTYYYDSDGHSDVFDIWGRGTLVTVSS VL: QSVVTQPPSVSAAPGQKVTISCSGSASNIGSNFVSWYQQLPGTAPKLLIYDNDKRDLGIPDRFSASISSTSATLGITGLQTGDEADYYCGTWDTSLTVGVFGGGTKLTVL ?
RESULT: > 89 µM

QUERY: Next binder up: ILT70083.2 (antibody, V domains shown) VH: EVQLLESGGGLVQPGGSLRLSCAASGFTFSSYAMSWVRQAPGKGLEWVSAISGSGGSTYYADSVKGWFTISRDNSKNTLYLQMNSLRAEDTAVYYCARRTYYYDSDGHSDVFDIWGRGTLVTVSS VL: QSVLTQPPSVSAAPGQKVTISCSGSASNIGSNFVSWYQQLPGTAPKLLIYDNDKRDLGIPDRFSASISSTSATLGITGLQTGDEADYYCGTWDTSLTVGVFGGGTKLTVL
RESULT: > 89 µM
